// Maximum % inhibition lookup, one value per entry
# tested-target: T1, Human PCSK9 Alexa Fluor 647 (human, UniProt Q8NBP7 31-692, limits assumed, Alexa Fluor 647 label (site not stated))
# T1 construct: Labelled tracer of the TR-FRET assay, 16 nM stock; also called proprotein convertase subtilisin/kexin type 9
# T1 sequence (Q8NBP7 31-692 limits assumed): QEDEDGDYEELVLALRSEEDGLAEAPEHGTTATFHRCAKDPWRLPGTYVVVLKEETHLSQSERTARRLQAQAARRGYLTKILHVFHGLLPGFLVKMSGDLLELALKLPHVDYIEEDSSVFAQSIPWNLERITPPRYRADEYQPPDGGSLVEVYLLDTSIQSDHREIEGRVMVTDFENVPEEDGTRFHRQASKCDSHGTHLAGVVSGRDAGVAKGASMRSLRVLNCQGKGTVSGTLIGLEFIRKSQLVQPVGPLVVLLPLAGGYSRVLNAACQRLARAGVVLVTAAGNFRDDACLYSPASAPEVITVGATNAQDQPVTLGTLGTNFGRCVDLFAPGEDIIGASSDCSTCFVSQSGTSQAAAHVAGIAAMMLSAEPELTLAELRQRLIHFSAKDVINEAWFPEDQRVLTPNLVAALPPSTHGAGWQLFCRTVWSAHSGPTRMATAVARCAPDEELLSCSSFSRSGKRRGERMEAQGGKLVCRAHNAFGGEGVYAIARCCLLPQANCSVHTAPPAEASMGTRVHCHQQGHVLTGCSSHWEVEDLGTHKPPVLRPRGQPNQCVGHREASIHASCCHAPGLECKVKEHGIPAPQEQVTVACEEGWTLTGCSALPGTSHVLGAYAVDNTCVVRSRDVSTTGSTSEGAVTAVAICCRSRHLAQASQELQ
# measurement-description: TR-FRET competition: PCSK9-Alexa Fluor 647 vs LDLR ECD-Eu kryptate
Bridge positions count the residues as written; N and C are the ends. Square brackets hold non-standard residues; d marks the D form. Bip = N[C@@H](Cc1ccc(-c2ccccc2)cc1)C(=O)O; Phe(4-Cl) = N[C@@H](Cc1ccc(Cl)cc1)C(=O)O; NMeA = CN[C@@H](C)C(=O)O
Reply numerically in %, unit not repeated.

{CH2CO}-FVPTTF[NMeA][Phe(4-Cl)][NMeA]PAPC-NH2 (thioether N-13; SMILES CC(C)[C@@H]1NC(=O)[C@H](Cc2ccccc2)NC(=O)CSC[C@@H](C(N)=O)NC(=O)[C@@H]2CCCN2C(=O)[C@H](C)NC(=O)[C@@H]2CCCN2C(=O)[C@H](C)N(C)C(=O)[C@H](Cc2ccc(Cl)cc2)NC(=O)[C@H](C)N(C)C(=O)[C@H](Cc2ccccc2)NC(=O)[C@H]([C@@H](C)O)NC(=O)[C@H]([C@@H](C)O)NC(=O)[C@@H]2CCCN2C1=O, also called 2-1; Ex. No. 2-1) [Ac*-F-V-P-T-T-F-(N-Me)A-(p-Cl)F-(N-Me)A-P-A-P-C*-NH2]    50

Briefly, Maximum % inhibition measured for {CH2CO}-FVPTTF[NMeA][Bip][NMeA]EAPC-NHEt (thioether N-13; SMILES CCNC(=O)[C@@H]1CSCC(=O)N[C@@H](Cc2ccccc2)C(=O)N[C@@H](C(C)C)C(=O)N2CCC[C@H]2C(=O)N[C@@H]([C@@H](C)O)C(=O)N[C@@H]([C@@H](C)O)C(=O)N[C@@H](Cc2ccccc2)C(=O)N(C)[C@@H](C)C(=O)N[C@@H](Cc2ccc(-c3ccccc3)cc2)C(=O)N(C)[C@@H](C)C(=O)N[C@@H](CCC(=O)O)C(=O)N[C@@H](C)C(=O)N2CCC[C@H]2C(=O)N1, also called 3-2; Ex. No. 3-2) [Ac*-F-V-P-T-T-F-(N-Me)A-B-(N-Me)A-E-A-P-C*-NHEt] : 83

Value of Maximum % inhibition reported for the binder {CH2CO}-FVATTF[NMeA][Bip][NMeA]KAPCG-NH2 (thioether N-13; SMILES CC(C)[C@@H]1NC(=O)[C@H](Cc2ccccc2)NC(=O)CSC[C@@H](C(=O)NCC(N)=O)NC(=O)[C@@H]2CCCN2C(=O)[C@H](C)NC(=O)[C@H](CCCCN)NC(=O)[C@H](C)N(C)C(=O)[C@H](Cc2ccc(-c3ccccc3)cc2)NC(=O)[C@H](C)N(C)C(=O)[C@H](Cc2ccccc2)NC(=O)[C@H]([C@@H](C)O)NC(=O)[C@H]([C@@H](C)O)NC(=O)[C@H](C)NC1=O, also called 1-22; Ex. No. 1-22) [Ac*-F-V-A-T-T-F-(N-Me)A-B-(N-Me)A-K-A-P-C*-G-NH2] is 49

Maximum % inhibition reading for {CH2CO}-FVDTTF[NMeA][Bip][NMeA]ESPCG-NH2 (thioether N-13; SMILES CC(C)[C@@H]1NC(=O)[C@H](Cc2ccccc2)NC(=O)CSC[C@@H](C(=O)NCC(N)=O)NC(=O)[C@@H]2CCCN2C(=O)[C@H](CO)NC(=O)[C@H](CCC(=O)O)NC(=O)[C@H](C)N(C)C(=O)[C@H](Cc2ccc(-c3ccccc3)cc2)NC(=O)[C@H](C)N(C)C(=O)[C@H](Cc2ccccc2)NC(=O)[C@H]([C@@H](C)O)NC(=O)[C@H]([C@@H](C)O)NC(=O)[C@H](CC(=O)O)NC1=O, also called 1-17; Ex. No. 1-17) [Ac*-F-V-D-T-T-F-(N-Me)A-B-(N-Me)A-E-S-P-C*-G-NH2] : 91
